Test system: WT clinical isolates
Test description: MIC broth microdilution, WT
Assay type: cell-based
Run parameters: read-out: MIC WT, clinical isolates, IMM Univ. Zurich; wild type
In this section we review reported MIC values for a set of molecules.
Numbers only; they are read as µg/mL.

Illustrative cases are given below, each with its answer.
CN[C@H]1C(O)C2O[C@H](O[C@@H]3C(N)C[C@@H](N)[C@@H](O)[C@H]3OCCCN)C(N)C[C@@H]2O[C@@H]1O[C@H]1OC(CO)[C@@H](N)[C@H](O)C1O (stereo partly drawn) | 4
CNC1C(OC2OC(CO)C(N)C(O)C2O)OC2CC(N)C(OC3CC(O)C(N)CC3N)OC2C1O (stereo not drawn) | 4

*Q* Quick check: MIC on WT clinical isolates, item CNC1C(O)C2O[C@H](O[C@@H]3C(N)C[C@@H](N)C(O)[C@H]3OC3O[C@H](CN)[C@@H](O)[C@H]3O)C(N)C[C@@H]2O[C@@H]1O[C@H]1OC(CO)[C@@H](N)[C@H](O)C1O (stereo partly drawn) ?
*A* 8

*Q* Quick check: MIC on WT clinical isolates, item CNC1C(OC2OC(CO)C(N)C(O)C2O)OC2CC(N)C(OC3C(N)CC(N)C(O)C3OCC(O)CN)OC2C1O (stereo not drawn) ?
*A* 4

*Q* Quick check: MIC on WT clinical isolates, item CNC1C(OC2OC(CO)C(N)C(O)C2O)OC2CC(N)C(OC3C(N)CC(N)C(O)C3O)OC2C1O (stereo not drawn) [DC161, 5-Epi-apramycin] ?
*A* 2

*Q* Quick check: MIC on WT clinical isolates, item CNC1C(OC2OC(CO)C(N)C(O)C2O)OC2CC(N)C(OC3C(N)CC(N)C(O)C3F)OC2C1O (stereo not drawn) ?
*A* 4

*Q* Quick check: MIC on WT clinical isolates, item CNC1C(OC2OC(CO)C(N)C(O)C2O)OC2CC(N)C(OC3C(N)CC(N)C(OCCO)C3O)OC2C1O (stereo not drawn) [DC167, 6-O-(2-Hydroxyethyl)-apramycin] ?
*A* 8

---

Test system: AG042 MRSA AAC(6′)-I ANT(4′)-I APH(2′)
Test description: Antibacterial activity, clinical isolate AG042
Type: cell-based
Set-up: unit not given here
Readout type: Antibacterial activity AG042 MRSA AAC(6′)-I ANT(4′)-I APH(2′)

CNC1C(OC2OC(CO)C(N)C(O)C2O)OC2CC(N)C(OC3C(N)CC(N)C(O)C3OC3OC(CO)C(OCCO)C3O)OC2C1O (centres unmarked) | 32

*Q* Dear colleague, I am looking for the recorded Antibacterial activity AG042 MRSA AAC(6′)-I ANT(4′)-I APH(2′) of the following compound: CNC1C(OC2OC(CO)C(N)C(O)C2O)OC2CC(N)C(OC3C(N)CC(N)C(O)C3OC3OC(CO)C(OC4OC(CN)C(O)C(O)C4N)C3O)OC2C1O (centres unmarked)
*A* 2

*Q* Dear colleague, I am looking for the recorded Antibacterial activity AG042 MRSA AAC(6′)-I ANT(4′)-I APH(2′) of the following compound: CNC1C(OC2OC(CO)C(N)C(O)C2O)OC2CC(N)C(OC3C(N)CC(N)C(O)C3OC3OC(CN)C(OCCN)C3O)OC2C1O (centres unmarked)
*A* 1

*Q* Dear colleague, I am looking for the recorded Antibacterial activity AG042 MRSA AAC(6′)-I ANT(4′)-I APH(2′) of the following compound: CNC1C(OC2OC(CO)C(N)C(O)C2O)OC2CC(N)C(OC3CC(O)C(N)CC3N)OC2C1O (centres unmarked)
*A* 4

*Q* Dear colleague, I am looking for the recorded Antibacterial activity AG042 MRSA AAC(6′)-I ANT(4′)-I APH(2′) of the following compound: CNC1C(OC2OC(CO)C(N)C(O)C2O)OC2CC(N)C(OC3C(N)CC(N)C(O)C3OC3OC(CNC=O)C(O)C3O)OC2C1O (centres unmarked)
*A* 32

*Q* Dear colleague, I am looking for the recorded Antibacterial activity AG042 MRSA AAC(6′)-I ANT(4′)-I APH(2′) of the following compound: CNC1C(OC2OC(CO)C(N)C(O)C2O)OC2CC(N)C(OC3C(N)CC(N)C(O)C3OC3OCC(O)C3O)OC2C1O (stereo not drawn) [DC146, 5-O-β-D—(Erythrofuranosyl) apramycin]
*A* 16

*Q* Dear colleague, I am looking for the recorded Antibacterial activity AG042 MRSA AAC(6′)-I ANT(4′)-I APH(2′) of the following compound: CNC1C(O[C@H]2OC(CO)[C@@H](N)C(O)C2O)O[C@H]2CC(N)[C@@H](O[C@@H]3C(N)C[C@@H](N)C(O)C3O)OC2C1O (some centres unmarked)
*A* 8

*Q* Dear colleague, I am looking for the recorded Antibacterial activity AG042 MRSA AAC(6′)-I ANT(4′)-I APH(2′) of the following compound: CNC1C(OC2OC(CO)C(N)C(O)C2O)OC2CC(N)C(OC3C(N)CC(N)C(O)C3F)OC2C1O (stereo not drawn) [DC168, 5-Deoxy-5-epi-fluoro apramycin]
*A* 4

*Q* Dear colleague, I am looking for the recorded Antibacterial activity AG042 MRSA AAC(6′)-I ANT(4′)-I APH(2′) of the following compound: CNC1C(OC2OC(CO)C(N)C(O)C2O)OC2CC(N)C(OC3C(N)CC(N)C(O)C3F)OC2C1O (centres unmarked) [DC170, 5-Deoxy-5-fluoro apramycin]
*A* 8

*Q* Dear colleague, I am looking for the recorded Antibacterial activity AG042 MRSA AAC(6′)-I ANT(4′)-I APH(2′) of the following compound: CNC1C(OC2OC(CO)C(N)C(O)C2O)OC2CC(N)C(OC3C(N)CC(N)C(OCCO)C3O)OC2C1O (centres unmarked) [DC167, 6-O-(2-Hydroxyethyl)-apramycin]
*A* 64

*Q* Dear colleague, I am looking for the recorded Antibacterial activity AG042 MRSA AAC(6′)-I ANT(4′)-I APH(2′) of the following compound: CNC1C(OC2OC(CO)C(N)C(O)C2O)OC2CC(N)C(OC3C(N)CC(N)C(O)C3OC3OC(CO)C(OCCN)C3O)OC2C1O (centres unmarked)
*A* 8

*Q* Dear colleague, I am looking for the recorded Antibacterial activity AG042 MRSA AAC(6′)-I ANT(4′)-I APH(2′) of the following compound: NCC[C@H](O)C(=O)N[C@@H]1C[C@H](N)[C@@H](O[C@H]2O[C@H](CN)[C@@H](O)[C@H](O)[C@H]2O)[C@H](O)[C@H]1O[C@H]1O[C@H](CO)[C@@H](O)[C@H](N)[C@H]1O [AMK, amikacin, reference compound]
*A* 16-32

*Q* Dear colleague, I am looking for the recorded Antibacterial activity AG042 MRSA AAC(6′)-I ANT(4′)-I APH(2′) of the following compound: CNC1C(OC2OC(CO)C(N)C(O)C2O)OC2CC(N)C(OC3C(N)CC(N)C(O)C3OC3OC(CO)C(O)C3O)OC2C1O (centres unmarked)
*A* 64

*Q* Dear colleague, I am looking for the recorded Antibacterial activity AG042 MRSA AAC(6′)-I ANT(4′)-I APH(2′) of the following compound: CNC1C(OC2OC(CO)C(N)C(O)C2O)OC2CC(N)C(OC3C(N)CC(N)C(O)C3OC3OC(CNC=O)C(OCCN)C3O)OC2C1O (centres unmarked)
*A* 4-8

*Q* Dear colleague, I am looking for the recorded Antibacterial activity AG042 MRSA AAC(6′)-I ANT(4′)-I APH(2′) of the following compound: CN[C@@H]1[C@@H](O)[C@@H](O[C@@H]2[C@@H](O)[C@H](O[C@H]3OC(CNCCO)=CC[C@H]3N)[C@@H](N)C[C@H]2NC(=O)[C@@H](O)CCN)OC[C@]1(C)O [PLZ, plazomicin, reference compound]
*A* 2

*Q* Dear colleague, I am looking for the recorded Antibacterial activity AG042 MRSA AAC(6′)-I ANT(4′)-I APH(2′) of the following compound: CNC1C(OC2OC(CO)C(N)C(O)C2O)OC2CC(N)C(OC3C(N)CC(N)C(O)C3O)OC2C1O (stereo not drawn) [DC161, 5-Epi-apramycin]
*A* 2-4

*Q* Dear colleague, I am looking for the recorded Antibacterial activity AG042 MRSA AAC(6′)-I ANT(4′)-I APH(2′) of the following compound: CNC1C(OC2OC(CO)C(N)C(O)C2O)OC2CC(N)C(OC3C(N)CC(NC(=O)C(O)CCN)C(O)C3O)OC2C1O (centres unmarked)
*A* 8
